These entries and their values trace back to PubChem BioAssay (NCI).

Tested on: MALME-3M melanoma
Experiment: NCI tumour cell line growth inhibition, 48 h
compounds and their reported TGI
Quantity: TGI (µM)

1) CC1=CC(=O)c2ccc3c4ccccc4n(C)c3c2C1=O: 30
2) C(#Cc1ccccc1C#Cc1cnccn1)c1cnccn1: 80.4
3) NC(=O)c1c(NC(=O)c2ccc(C(F)(F)F)cc2Cl)sc2c1CCC(=O)C2: 1.39

###

Tested on: KM12 colon
Assay: NCI tumour cell line growth inhibition, 48 h
Quantity: GI50

1) CCc1n(Cc2ccc3ccccc3c2)cc[n+]1Cc1ccc2ccccc2c1: 0.549 µM
2) CC(C)C[C@H](NC(=O)[C@@H](N)Cc1cccc2ccccc12)B(O)O: 0.546 µM
3) O=C(NCCc1nccs1)c1cnc2c(S)cccc2c1: 2.88 µM
4) O=C(N/N=C/c1cc(Cl)cc(Cl)c1[O-])c1ccccc1O.O=C(N/N=C/c1cc(Cl)cc(Cl)c1[O-])c1ccccc1O.[Mn+2]: 0.448 µM
5) Nc1ncnc2c1ncn2C1OC(F)(COS(N)(=O)=O)C(O)C1O (stereo unspecified): > 100 µM
6) CCOC(=O)c1ccc(N[C@@H]2c3cc4c(cc3C(c3cc(OC)c(O)c(OC)c3)[C@H]3C(=O)OCC32)OCO4)cc1 (stereo partly specified): 0.875 µM
7) CCCOC(=O)C1C(c2ccc(OC)cc2)NC(c2ccc(OC)cc2)C(C(=O)OCCC)S1(=O)=O (stereo unspecified): > 100 µM
8) Cc1nc2sc(C(=O)Nc3cccc4c3OCCO4)c(N)c2cc1C(C)O (stereo unspecified): 3.85 µM
9) Cc1ccc(-c2csc3ncnc(Nc4cccc(O)c4)c23)cc1: 25.7 µM
10) COc1cccc(C2=C(c3cn(C)c4c(C)cccc34)C(=O)NC2=O)c1: > 21 µM
11) O=C(Nc1cccc2[nH]c(C(F)(F)F)nc12)c1ccc(Br)cc1F: 3.29 µM
12) O=S(=O)([O-])c1ccc(C=Nc2ccccc2)c([O-])c1.O=S(=O)([O-])c1ccc(C=Nc2ccccc2)c([O-])c1.[Co+2]: 65.4 µM
13) COC(=O)c1cc2c3cc(Cl)ccc3[nH]c2c2ncccc12: > 100 µM
14) C(#Cc1ccccc1C#Cc1cnccn1)c1cnccn1: 26.1 µM
15) COc1cc(/C=C/C(=O)c2cccc(-n3cc(-c4ccccc4)[nH]c3=O)c2)ccc1O: 2.02 µM
16) COc1ccc(C(=O)c2no[n+]([O-])c2C(=O)c2ccc(OC)cc2)cc1: 8.91 µM

###

System: OVCAR-5 ovarian
Assay: NCI tumour cell line growth inhibition, 48 h
Quantity: TGI

1) CC1CCC2C(C(=O)O[C@H]3C4C=CO[C@@H](OC5OC(CO)C(O)C(O)C5O)C4[C@@]4(CO)O[C@@H]34)=CO[C@@H](OC3OC(CO)C(O)C(O)C3O)C12 (stereo partly specified): > 10 µM
2) CC1=CC(=O)c2ccc3c4ccccc4n(C)c3c2C1=O: > 100 µM
3) COc1ccc2c(c1)C1Oc3ccccc3CC1CO2 (stereo unspecified): > 100 µM
4) CC1(C)COC(c2cccc(C(=O)c3ccccc3)c2)=N1: > 100 µM
5) Nc1ncnc2occ(-c3ccc(NC(=O)Nc4cccc(C(F)(F)F)c4)cc3)c12: 13.3 µM
6) CC(C)(CO)CNc1nc(N)nc(Cl)c1C=O: > 100 µM
